assay: Tissue concentrations resulting from gavage of rats with RTMBE; format: in vivo, rat (female Sprague-Dawley); conditions: rat, liver, po; 14 mg/day by gavage, 7 days; read-out: RTMBE, Liver
MEASURED_PROPERTY: concentration at 168 h (ng/g)

> print(dat)
                                  structure       measured.property  observed.result
1  COc1cc(COC/C=C(C)/C=C/C=C(C)/C=C/C2=C(C)CCCC2(C)C)cc(OC)c1OC  concentration at 168 h            78900

====

experiment: Toxicity of retinyl ethers in mice by gavage during 28-29 days; settings: oral gavage in corn oil, 28-29 days
MEASURED_PROPERTY: Toxic Dose

> print(dat)
                                  structure  measured.property  observed.result
1  CC1=C(/C=C/C(C)=C/C=C/C(C)=C/COCc2cc(C)ccc2C)C(C)(C)CCC1         Toxic Dose  > 431 mg/kg day
2  COc1ccc(COC/C=C(C)/C=C/C=C(C)/C=C/C2=C(C)CCCC2(C)C)cc1         Toxic Dose  > 433 mg/kg day
3  C#CCOC/C=C(C)/C=C/C=C(C)/C=C/C1=C(C)CCCC1(C)C         Toxic Dose   > 43 mg/kg day
4  COc1cc(COC/C=C(C)/C=C/C=C(C)/C=C/C2=C(C)CCCC2(C)C)cc(OC)c1OC         Toxic Dose  > 249 mg/kg day

====

Experiment: Tissue concentrations resulting from gavage of rats with RTMBE
Assay type: in vivo, rat (female Sprague-Dawley)
Details: rat, mammary gland, po; 14 mg/day by gavage, 14 days; read-out: RTMBE, Mammary Gland
Protocol: To plasma samples (50-200 μl), ten volumes of acetonitrile were added, and the preparations were centrifuged. The supernatants were evaporated to dryness under nitrogen and reconstituted in the mobile phase (see below). Tissues were homogenized in four volumes of water at 0° C., and each homogenate was extracted with acetonitrile (50 mL/g tissue). […] Portions (25-50 μl) of the reconstituted samples were analyzed by reverse-phase HPLC. […]
MEASURED_PROPERTY: concentration at 336 h (ng/g)

> print(dat)
                                  structure       measured.property  measurement.units  observed.result
1  COc1cc(COC/C=C(C)/C=C/C=C(C)/C=C/C2=C(C)CCCC2(C)C)cc(OC)c1OC  concentration at 336 h               ng/g           178000

====

assay: Tissue concentrations resulting from gavage of rats with RTMBE; format: in vivo, rat (female Sprague-Dawley); details: rat, serum, po; 14 mg/day by gavage, 14 days; read-out: RTMBE, Serum
MEASURED_PROPERTY: concentration at 336 h (ng/mL)

> print(dat)
                                  structure       measured.property  observed.result
1  COc1cc(COC/C=C(C)/C=C/C=C(C)/C=C/C2=C(C)CCCC2(C)C)cc(OC)c1OC  concentration at 336 h            17300

====

Measured NOAEL by item
assay: in vivo; settings: mouse, in vivo, po
MEASURED_PROPERTY: NOAEL (mg/kg/day)

> print(dat)
                                  structure  observed.result
1  COc1cc(COC/C=C(C)/C=C/C=C(C)/C=C/C2=C(C)CCCC2(C)C)cc(OC)c1OC              249
2  C#CCOC/C=C(C)/C=C/C=C(C)/C=C/C1=C(C)CCCC1(C)C               43
3  COc1ccc(COC/C=C(C)/C=C/C=C(C)/C=C/C2=C(C)CCCC2(C)C)cc1              433
4  CC1=C(/C=C/C(C)=C/C=C/C(C)=C/COCc2cc(C)ccc2C)C(C)(C)CCC1              431
